Provide the recorded inhibition for the entries that follow.
Target: Leucine aminopeptidase (Plasmodium falciparum (isolate 3D7)) (UniProt Q8IL11)
Sequence (Q8IL11 whole entry, looked up): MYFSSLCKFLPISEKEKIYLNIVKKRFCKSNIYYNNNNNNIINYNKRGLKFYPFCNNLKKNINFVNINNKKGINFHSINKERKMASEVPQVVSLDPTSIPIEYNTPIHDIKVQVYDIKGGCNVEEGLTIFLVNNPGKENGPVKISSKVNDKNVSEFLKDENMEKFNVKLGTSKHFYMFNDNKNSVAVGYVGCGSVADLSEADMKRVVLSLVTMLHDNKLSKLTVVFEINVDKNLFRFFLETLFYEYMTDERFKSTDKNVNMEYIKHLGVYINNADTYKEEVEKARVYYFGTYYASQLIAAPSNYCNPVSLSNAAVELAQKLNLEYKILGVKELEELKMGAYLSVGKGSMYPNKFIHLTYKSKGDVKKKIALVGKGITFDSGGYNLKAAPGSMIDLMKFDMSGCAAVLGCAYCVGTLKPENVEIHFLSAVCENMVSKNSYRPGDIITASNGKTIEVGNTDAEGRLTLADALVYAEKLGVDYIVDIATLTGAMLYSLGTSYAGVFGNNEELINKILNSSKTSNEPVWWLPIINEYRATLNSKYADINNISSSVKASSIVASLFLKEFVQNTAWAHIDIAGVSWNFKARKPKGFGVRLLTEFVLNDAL
Assay: P. falciparum M17LAP inhibitors, primary screen, biochemical, fluorogenic H-Leu-NHMec substrate, 1536-well (AID 1619);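 further: plate controls were full reaction with DMSO carrier for no effect and no enzyme background for full effect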
Settings: recombinant M17LAP, H-Leu-NHMec fluorogenic kinetic assay; at 30 µM; hits give high values
Out of some 220,000 compounds screened, about 830 (0.38%) were called active. Only a sample is shown. Results with a measured potency or affinity are listed apart.

inhibition recorded for this compound, `Cn1c(=O)c(C(=O)Nc2ccccc2S(N)(=O)=O)c(O)c2ccccc21` , is -0.17% (inactive)

inhibition recorded for this compound, `CCOC(=O)c1cnc2c(C)c(Cl)ccc2c1Nc1ccc(S(=O)(=O)Nc2ncccn2)cc1` , is -6.24% (inactive)

inhibition recorded for this compound, `CCOc1ccc(C(=O)NCC(=O)N2CCc3ccccc3C2)cc1OCC` , is -4.26% (inactive)

inhibition recorded for this compound, CC(C)CCn1nnnc1C(c1ccc(N(C)C)cc1)N1CCN(C(=O)c2ccco2)CC1 (stereo not given) , is 8.08% (inactive)

inhibition recorded for this compound, `Cc1csc(NC(=O)C2CCN(S(=O)(=O)c3ccc4c(c3)oc(=O)n4C)CC2)n1` , is 8.23% (inactive)

inhibition recorded for this compound, COc1ccc(C2CC(c3ccccc3)=NN2C(=O)COC(=O)CNC(=O)c2ccccc2)cc1 (stereo not given) , is -5.9% (inactive)

inhibition recorded for this compound, `CC(C)N(Cc1nc(-c2ccc3c(c2)OCO3)no1)Cc1nccn1C` , is -7% (inactive)

inhibition recorded for this compound, C=CCOC(=O)C1=C(C)Nc2[nH]c(=O)[nH]c(=O)c2C1c1ccccc1 (stereo not given) , is 16.9% (inactive)

inhibition recorded for this compound, `COc1ccc(/C=N/NC(=O)c2[nH]c(C)c(C(=O)N/N=C/c3ccc(OC)cc3)c2C)cc1` , is -5.84% (inactive)

inhibition recorded for this compound, `Cc1ccc(NC(=O)Nc2ccc(F)cc2)nc1` , is 3.7% (inactive)

inhibition recorded for this compound, `O=C(NCCCN1CCCC1=O)c1cc(NS(=O)(=O)c2ccc(F)cc2)cc(NS(=O)(=O)c2ccc(F)cc2)c1` , is 22.7% (inactive)

inhibition recorded for this compound, CC1(C(=O)Nc2nnc(C(C)(C)C)s2)Cc2ccccc2C(=O)O1 (stereo not given) , is 48.3% (inactive)

inhibition recorded for this compound, `Cc1nn(C)cc1S(=O)(=O)N1CCN(Cc2ccc(F)cc2Cl)CC1` , is 3.03% (inactive)

inhibition recorded for this compound, `COc1ccc(-c2cn(-c3ccc(SC(F)F)cc3)c3[n+]2CCC3)cc1OC` , is -11.9% (inactive)

inhibition recorded for this compound, CCOc1ccc(C(C(=O)Nc2ccc(F)cc2)N(C(=O)Cn2nnc3ccccc32)C2CC2)cc1 (stereo not given) , is 6.8% (inactive)

inhibition recorded for this compound, `COC(=O)COc1ccc(/C=C2/SC(=O)N(CC(=O)N3CCCC3)C2=O)cc1Br` , is 14.7% (inactive)

inhibition recorded for this compound, `N#C/C(C(=O)NCc1ccccc1)=C1/N=C(NC(=O)c2cccs2)c2ccccc21` , is 5.68% (inactive)

inhibition recorded for this compound, Cc1ccc(C)c(NC(=O)C2CC3c4ccccc4C2c2ccccc23)c1 (stereo not given) , is -1.72% (inactive)

inhibition recorded for this compound, `CS(=O)(=O)N(CC(=O)Nc1ccc(S(=O)(=O)N2CCOCC2)cc1)c1ccccc1Cl` , is 12.3% (inactive)

inhibition recorded for this compound, `COc1ccc(C(=O)NCC(=O)OCC(=O)Nc2c(C)n(C)n(-c3ccccc3)c2=O)cc1` , is 5.29% (inactive)

inhibition recorded for this compound, `CCc1nc(N2CCN(C(C)=O)CC2)c(C#N)c2c1COC(C)(C)C2` , is -49.5% (inactive)

inhibition recorded for this compound, O=S(=O)(c1cc(Cl)cc(Cl)c1)N1CCCC1c1nc2ccccc2s1 (stereo not given) , is -5.02% (inactive)

inhibition recorded for this compound, CCOC(=O)N1CCN(C(c2ccc(F)cc2)c2sc3nc(C)nn3c2O)CC1 (stereo not given) , is -1.83% (inactive)

inhibition recorded for this compound, `O=S(=O)(Nc1cccc2c1CCCC2)c1cccc(C(F)(F)F)c1` , is -8.32% (inactive)

inhibition recorded for this compound, Cc1ccc(N(CC(O)CN2C(=O)NC(C)(C)C2=O)S(=O)(=O)c2ccc(C)cc2)cc1 (stereo not given) , is -16.4% (inactive)

inhibition recorded for this compound, `Fc1cccc(CSc2ccc3nnc(-c4cccnc4)n3n2)c1` , is 21.3% (inactive)

inhibition recorded for this compound, `COC(=O)[C@@]1(Cc2ccccc2)[C@H]2c3cc(C(=O)N4CCCC4)n(CCSCCO)c3C[C@H]2CN1C(=O)c1ccccc1` , is 2.66% (inactive)

inhibition recorded for this compound, `NC(=O)COc1ccccc1/C=C1/SC(=O)N(CC(=O)N2CCc3ccccc3C2)C1=O` , is -2.36% (inactive)

inhibition recorded for this compound, O=C(CC1Sc2ccccc2NC1=O)Nc1cccc(-c2nnc3n2CCCCC3)c1 (stereo not given) , is 3% (inactive)

inhibition recorded for this compound, `COc1ccc(Nc2nc3[nH]c(=O)cc(O)c3s2)cc1` , is 23.2% (inactive)

inhibition recorded for this compound, O=C(O)C1CC(=O)N(Cc2ccc3c(c2)OCO3)C1 (stereo not given) , is -0.32% (inactive)

inhibition recorded for this compound, O=S1(=O)CCC(NC(=S)NC2CCS(=O)(=O)C2)C1 (stereo not given) , is 1.24% (inactive)

inhibition recorded for this compound, `O=C(Cn1nc(-c2ccccc2)c2ccccc2c1=O)Nc1ccc2c(c1)nc1n2CCOC1` , is -12.9% (inactive)

inhibition recorded for this compound, `O=[N+]([O-])c1ccc(Sc2ccccn2)nc1` , is 6.7% (inactive)

inhibition recorded for this compound, `c1ccc(COc2ccccc2CNc2nn[nH]n2)cc1` , is 6.74% (inactive)
